Source: patent US20210101881A1

Tested on: BT-474
Test: Growth inhibition of CDK9-positive tumor cell line in vitro
Format: cell-based
Details: Human breast cancer, read-out: Inhibitory activity (IC50) on growth in vitro, BT-474
pIC50: −log10 of the molar value.
ASSAY METRIC: pIC50

- SMILES TEXT: "Cc1cc(Nc2ncc(Cl)c(-n3cc(C(N)=O)c4ccccc43)n2)ccc1N1CCN(C(C)C)CC1"
  RECORDED MEASUREMENT: "7.00 to 8.00"

Batch request: pIC50 per item, same order as input.
1. CCN1CCN(c2cccc(Nc3ncc(F)c(-n4cc(C(N)=O)c5cc(OC)ccc54)n3)c2)CC1
2. CC(C)N1CCN(c2cccc(Nc3ncc(F)c(-n4cc(C(N)=O)c5ccccc54)n3)c2)CC1
3. NC(=O)c1cn(-c2nc(Nc3cccc(N4CCN(C5CCOCC5)CC4)c3)ncc2F)c2ccccc12
4. CCN1CCN(c2cccc(Nc3ncc(F)c(-n4cc(C(N)=O)c5cc(F)ccc54)n3)c2)CC1

Result string:
> 9.00
> 9.00
> 9.00
> 9.00

----------
System: CA Ski
Assay: Growth inhibition of CDK9-positive tumor cell line in vitro
Assay type: cell-based
Details: Human cervical cancer, read-out: Inhibitory activity (IC50) on growth in vitro, CA Ski
pIC50: −log10 of the molar value.
ASSAY METRIC: pIC50

- COMPOUND: "CCN1CCN(c2cccc(Nc3ncc(F)c(-n4cc(C(N)=O)c5cc(OC)ccc54)n3)c2)CC1 [Compound 152]"
  ASSAY METRIC: "pIC50"
  RECORDED MEASUREMENT: "> 9.00"
- COMPOUND: "CC(C)N1CCN(c2cccc(Nc3ncc(F)c(-n4cc(C(N)=O)c5ccccc54)n3)c2)CC1 [Compound 144]"
  ASSAY METRIC: "pIC50"
  RECORDED MEASUREMENT: "> 9.00"
- COMPOUND: "CCN1CCN(c2cccc(Nc3ncc(F)c(-n4cc(C(N)=O)c5cc(F)ccc54)n3)c2)CC1 [Compound 161]"
  ASSAY METRIC: "pIC50"
  RECORDED MEASUREMENT: "> 9.00"

Report pIC50 for each item below.
1. Cc1cc(Nc2ncc(Cl)c(-n3cc(C(N)=O)c4ccccc43)n2)ccc1N1CCN(C(C)C)CC1 [Compound 60]
2. NC(=O)c1cn(-c2nc(Nc3cccc(N4CCN(C5CCOCC5)CC4)c3)ncc2F)c2ccccc12 [Compound 140]

Result string:
7.00 to 8.00
> 9.00

----------
Exercise: state measured IC50 for each of the compounds provided.
System: MCF7
Assay: Growth inhibition of CDK9-positive tumor cell line in vitro
Assay type: cell-based
Settings: Human breast cancer, read-out: Inhibitory activity (IC50) on growth in vitro, MCF7

- COMPOUND: "CCN1CCN(c2cccc(Nc3ncc(F)c(-n4cc(C(N)=O)c5cc(F)ccc54)n3)c2)CC1 [Compound 161]"
  IC50: "< 1 nM"

Give measured IC50 for every item shown.
1. CC(C)N1CCN(c2cccc(Nc3ncc(F)c(-n4cc(C(N)=O)c5ccccc54)n3)c2)CC1 [Compound 144]
2. NC(=O)c1cn(-c2nc(Nc3cccc(N4CCN(C5CCOCC5)CC4)c3)ncc2F)c2ccccc12 [Compound 140]
3. Cc1cc(Nc2ncc(Cl)c(-n3cc(C(N)=O)c4ccccc43)n2)ccc1N1CCN(C(C)C)CC1 [Compound 60]
4. CCN1CCN(c2cccc(Nc3ncc(F)c(-n4cc(C(N)=O)c5cc(OC)ccc54)n3)c2)CC1 [Compound 152]

Result string:
1: < 1 nM; 2: < 1 nM; 3: 10 to 100 nM; 4: < 1 nM
